Test: in vivo
Conditions: mouse, heart, iv, 0.2 nmol/mouse, total radioactivity
readout_type: tissue uptake at 24 h

Request the reported tissue uptake at 24 h associated with C[C@@H](O)[C@@H]1NC(=O)[C@H](CCCCN)NC(=O)[C@@H](Cc2ccc(NC(N)=O)cc2)NC(=O)[C@H](Cc2ccc(O)cc2)NC(=O)[C@H](NC(=O)[C@H](Cc2ccc(Cl)cc2)NC(=O)CN2CCN(CC(=O)O)CCN(CC(=O)O)CCN(CC(=O)O)CC2)CSSC[C@@H](C(=O)N[C@H](Cc2ccc(O)cc2)C(N)=O)NC1=O [metal not drawn]
≤ 0.1 %ID/g

Reference source: paper PMC8921065
